Data origin, for the record: the supplement of paper PMC9262897

- System: E. coli TESEC Mtb Alr
- ASSAY: growth (OD600 after 10 h); higher = more growth (less inhibition)
- CONDITION NOTES: arabinose 10000 nM; compound 0.1 mM; raw OD600 reference: median of DMSO wells 0.264, cell-free background 0.041
Counter-ions that a name gives are not always drawn.
molecules and their reported growth
Answer field: number only, no words.

The following molecules have reported results that may help.
molecule="N=C(N)NC(=O)Cc1c(Cl)cccc1Cl [Guanfacine hydrochloride]" assayed_system="E. coli TESEC Mtb Alr" number=0.26
molecule="CCN(CC)CCCC(C)Nc1ccnc2cc(Cl)ccc12 (centres undefined) [Chloroquine diphosphate]" assayed_system="E. coli TESEC Mtb Alr" number=0.249
molecule="Cc1nc2n(c(=O)c1CCN1CCC(c3noc4cc(F)ccc34)CC1)CCCC2 [Risperidone]" assayed_system="E. coli TESEC Mtb Alr" number=0.269
molecule="C=C(CC)C(=O)c1ccc(OCC(=O)O)c(Cl)c1Cl [Ethacrynic acid]" assayed_system="E. coli TESEC Mtb Alr" number=0.244
molecule="NC[C@H]1CC[C@H](C(=O)O)CC1 [Tranexamic acid]" assayed_system="E. coli TESEC Mtb Alr" number=0.282

Report the value of growth obtained on E. coli TESEC Mtb Alr for C[C@]1(Cn2ccnn2)[C@H](C(=O)O)N2C(=O)C[C@H]2S1(=O)=O [Tazobactam] . 0.0384

Answer briefly: growth recorded on E. coli TESEC Mtb Alr for O=C1Cc2cc(CCN3CCN(c4nsc5ccccc45)CC3)c(Cl)cc2N1 [Ziprasidone Hydrochloride] 0.249

Write growth of C[C@H](CCC(=O)O)[C@H]1CC[C@H]2[C@@H]3C(=O)C[C@@H]4CC(=O)CC[C@]4(C)[C@H]3CC(=O)[C@]12C [Dehydrocholic acid] ; system used: E. coli TESEC Mtb Alr 0.25

Retrieve growth on E. coli TESEC Mtb Alr; query Cc1cc(NS(=O)(=O)c2ccc(N)cc2)no1 [Sulfamethoxazole] 0.212

Find the measured growth of CNC(=C[N+](=O)[O-])NCCSCc1ccc(CN(C)C)o1 [Ranitidine hydrochloride] with E. coli TESEC Mtb Alr as test system. 0.252

Param request: growth | system E. coli TESEC Mtb Alr | item CCc1cccc2c3c([nH]c12)C(CC)(CC(=O)O)OCC3 (centres undefined) [Etodolac] 0.264

Consider the molecule CC(C)(C(=O)c1cccnc1)c1cccnc1 [Metyrapone] tested on E. coli TESEC Mtb Alr; state its growth. 0.273

State the measured growth (E. coli TESEC Mtb Alr) of O=C(O)CCCC[C@@H]1SC[C@@H]2NC(=O)N[C@@H]21 [Biotin] 0.265

Quote E. coli TESEC Mtb Alr growth for entry C(=C\c1ccccc1)/CN1CCN(C(c2ccccc2)c2ccccc2)CC1 [Cinnarizine] . 0.251

State growth (E. coli TESEC Mtb Alr) of CCCCOC(=O)c1ccc(O)cc1 [Butylparaben] . 0.213

Jot down growth (E. coli TESEC Mtb Alr) of C[C@H](CCC(=O)O)[C@H]1CC[C@H]2[C@@H]3[C@@H](O)C[C@@H]4C[C@H](O)CC[C@]4(C)[C@H]3CC[C@]12C [Urosiol] . 0.188

Please respond with reported growth (system E. coli TESEC Mtb Alr) for CC(C)(C)NCC(O)COc1cccc2c1CCC(=O)N2 (centres undefined) [Carteolol hydrochloride] . 0.252

Identify measured growth obtained with E. coli TESEC Mtb Alr for N#Cc1ccc(C(c2ccc(C#N)cc2)n2cncn2)cc1 [Letrozole] . 0.253

Look up E. coli TESEC Mtb Alr data: growth of CCC(Cc1c(I)cc(I)c(N)c1I)C(=O)O (centres undefined) [Iopanoic acid] , then report it. 0.0635

Fill: growth (E. coli TESEC Mtb Alr) for this molecule CNCCCC1c2ccccc2C=Cc2ccccc21 [Protriptyline hydrochloride] 0.256

Report the value of growth obtained on E. coli TESEC Mtb Alr for O=C(O)Cc1ccccc1Nc1c(Cl)cccc1Cl [Diclofenac sodium] . 0.132

Look up and report growth, with E. coli TESEC Mtb Alr as system, for C[C@H]1C[C@@H]2[C@H]([C@@H](O)C[C@@]3(C)[C@H]2CC[C@]3(O)C(=O)CO)[C@@]2(C)C=CC(=O)C=C12 [Methylprednisolone, 6-alpha] 0.243

Supply growth measured with E. coli TESEC Mtb Alr for c1ccc(C2CN3CCSC3=N2)cc1 (centres undefined) [Tetramisole hydrochloride] . 0.259

Give growth; test system E. coli TESEC Mtb Alr; molecule NC[C@H]1O[C@H](O[C@H]2[C@H](O)[C@@H](O[C@H]3O[C@H](CO)[C@@H](O)[C@H](N)[C@H]3O)[C@H](N)C[C@@H]2N)[C@H](N)C[C@@H]1O [Tobramycin] 0.0392

Give the observed growth of COc1cccc(N(C)C(=S)Oc2ccc3c(c2)CCCC3)n1 [Liranaftate] for E. coli TESEC Mtb Alr. 0.289

Return reported growth for target or system E. coli TESEC Mtb Alr, item CCCN[C@H]1CCc2nc(N)sc2C1 [Pramipexole dihydrochloride] . 0.258

Provide growth, recorded with E. coli TESEC Mtb Alr, of NC(N)=Nc1nc(CSCC/C(N)=N/S(N)(=O)=O)cs1 [Famotidine] 0.273

Under E. coli TESEC Mtb Alr: report growth of CCC1=C(C)CN(C(=O)NCCc2ccc(S(=O)(=O)NC(=O)N[C@H]3CC[C@H](C)CC3)cc2)C1=O [Glimepiride] . 0.239

Report value: growth, system: E. coli TESEC Mtb Alr, molecule: CCN(CC)C(=O)c1ccc(O)c(OC)c1 [Ethamivan] 0.249
